# Target Under Test: VHL (co-expressed with Elongin B and Elongin C) (Homo sapiens (Human), UniProt P40337)
# Sequence (P40337 whole entry, looked up): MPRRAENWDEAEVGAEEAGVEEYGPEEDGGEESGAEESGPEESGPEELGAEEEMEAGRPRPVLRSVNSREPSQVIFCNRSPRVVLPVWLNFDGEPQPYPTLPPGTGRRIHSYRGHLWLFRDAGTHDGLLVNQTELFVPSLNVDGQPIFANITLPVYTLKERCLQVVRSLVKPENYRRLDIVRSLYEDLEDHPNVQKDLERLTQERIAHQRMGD
# Sequence (Q15370 whole entry partner, looked up): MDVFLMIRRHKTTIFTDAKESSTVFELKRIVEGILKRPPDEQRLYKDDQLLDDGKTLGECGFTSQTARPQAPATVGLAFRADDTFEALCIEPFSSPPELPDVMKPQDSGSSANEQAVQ
# Sequence (Q15369 whole entry partner, looked up): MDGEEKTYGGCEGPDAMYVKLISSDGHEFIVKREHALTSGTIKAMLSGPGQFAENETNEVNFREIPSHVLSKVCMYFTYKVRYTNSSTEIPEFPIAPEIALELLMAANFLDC
# Assay Comment: Measurement of intermolecular interactions using surface plasmon resonance (Biacore T200), Kd value for VHL
# Format: binding
# Setup Conditions: SPR, immobilized VHL, 25° C.; read-out: Kd
Recorded Metric: Kd

// solved cases for Kd follow
> print(dat)
                                   compound  assay.result
1  CC(=O)N[C@H](C(=O)N1C[C@H](O)C[C@H]1c1ncc(-c2cccc(-c3scnc3C)c2)[nH]1)C(C)(C)C    1 to 10 µM
2  COc1cc(C(C(=O)N2C[C@H](O)C[C@H]2c2nc(C(=O)N3CCC(c4ccc(C)cn4)CC3)c[nH]2)C(C)C)on1 (stereo partly shown)    1 to 10 µM

Ask: Quote Kd reported for COc1ccc(CN(C)C(=O)c2c[nH]c([C@@H]3C[C@@H](O)CN3C(=O)[C@@H](NC(C)=O)C(C)(C)C)n2)cc1 please.
Reply: 1 to 10 µM

Ask: Consider the compound CC(=O)N[C@H](C(=O)N1C[C@H](O)C[C@H]1c1ncc(Cc2cccc(-c3scnc3C)c2)[nH]1)C(C)(C)C and give its recorded Kd.
Reply: 1 to 10 µM

Ask: Complete the entry with Kd for CNC(=O)c1ccc(-c2cnc([C@@H]3C[C@@H](O)CN3C(=O)C(c3cc(OC)no3)C(C)C)[nH]2)cc1 (stereo partly shown)
Reply: 1 to 10 µM

Ask: Please list Kd recorded for the compound COc1ccc(Cc2cnc([C@@H]3C[C@@H](O)CN3C(=O)C(c3cc(OC)no3)C(C)C)[nH]2)cc1 (stereo partly shown)
Reply: 1 to 10 µM

Ask: Identify measured Kd corresponding to CC(=O)N[C@H](C(=O)N1C[C@H](O)C[C@H]1c1nc(C(=O)N(C)Cc2ccccc2F)c[nH]1)C(C)(C)C
Reply: 1 to 10 µM
